The following sequences are listed with their measured apparent KD of MS2 coat protein values.
system: MS2 coat protein; assay: apparent KD of MS2 coat protein; designed switch direction (-1 OFF switch, 1 ON switch): -1; higher = weaker reporter binding; settings: input ligand: FMN 200 uM
# value in nM; strip the unit string

GAUCAUGCAGGAUAUACAUGGAUCAUGAAAACAUGGAUUUCACAUGAGGAUCACCCAUGUAGAAGGGCAUGAUC [Omei Ex2 A10] (Eterna round: R97, puzzle: Exclusion 2) = 47.5
GAGUUAGCGUGUGGAAUAUACAUGAGGAUCACCCAUGUUAGCUUAUAUAUUGCUCGUCUUAUAACAACAAUUAACUG [Mod JX-Electric-eye3] (Eterna round: R97, puzzle: Sensor, turn-off variant 1) = 138
AGGAGUAGUAAGGAUAUAGCGGACUAGUCGUCGUUAGAAGGUACUACAUGAGGAUCACCCAUGUUGACCUGAGC [EX6 B.14] (Eterna round: R97, puzzle: Exclusion 6) = 46.5
GGUGGGAGGGAUGUGGUGUACAUGAGGAUCACCCAUGUGGUGGACGGGCGCGGGUGCGGGUUUUUUGUUCGUCUUGU [High Nucleotide Full Attached] (Eterna round: R97, puzzle: Sensor, turn-off variant 1) = 131
GGUUGGCGAGGAUAUACAUGAGGAUCACCCAUGUGGUCCUGUGGCUGGAAAAACCUUUGUAGAAGGCGCGGGUC [salish99_ex3_r4_028] (Eterna round: R97, puzzle: Exclusion 3) = 258
AACCAGCGAGGAUAUGCUUGAGCUUGUUCUGGUCAGAAUCGACUUGAGGAUCACCCAAGUAGAAGGUGCUGACG [EX2 #60] (Eterna round: R97, puzzle: Exclusion 2) = 18.7

## Input I'd like to know its apparent KD of MS2 coat protein. The sequence in question is AGCUUUUUGUUUUUGGGUGACAUGAGGAUCACCCAUGUCUUAUGGGCCCAGUAGUAGUAAGAUAGAAGGGACCCACG [-20.8, -41.27, a 31%] (Eterna round: R97, puzzle: Sensor, turn-off variant 1)
## Output 639

## Input Note, next up: UGCCGUAGAGGAUAUACGUAGAAAUAGAUUCAUGUAAAACUACAUGAGGAUCACCCAUGUAGAAGGCUAUGGCU [JL-ex2-4.32 Eli mod] (Eterna round: R97, puzzle: Exclusion 2)
## Output 243

## Input Note, next up: UCCGAACAUGAGGAUCACCCAUGUCAGGAUAUUCGGUUACGUGACAAAUAGUACUAACGAAGAAGGGACAUGCU [Eternabot (L2) Solution 26] (Eterna round: R97, puzzle: Exclusion 1)
## Output 79.1

----------
tested on: MS2 coat protein; test: apparent KD of MS2 coat protein; designed switch direction (-1 OFF switch, 1 ON switch): -1; higher = weaker reporter binding; details: input ligand: none
The following sequences are listed with their measured apparent KD of MS2 coat protein values.
# value in nM; strip the unit string

// below: answered sequences
GCCAAUGACUGAGGAUAUGCUUAUAGACAUGAGGAUCACCCAUGUAAAUGGGACAUGUCAAACCAGCAGAAGGCAGGACCUGGC [Arused] (Eterna round: R96, puzzle: Exclusion NG 2) = 514
GGUACUCAAAGAGUACCAAUACGAACAUGAGGAUCACCCAUGUAGGAUAUGCUACUCAAAGAGUAGCAGAAGGACGUGUACCCU [Far Half Aptamer v2] (Eterna round: R96, puzzle: Exclusion NG 3) = 24.8
AGCUAGUCAGGAUAUACGAACACCUCAAAAGAGGUGAAGGGACAUGAGGAUCACCCAUGUAGAAGGGACUAGCA [Mat - Exclusion 2 - JL mod - D29] (Eterna round: R96, puzzle: Exclusion 2) = 24.3
AACCAGAUGAAACACAGGCACAUGAGGAUCACCCAUGUCUUAGAGCAUUCGGGUAAUCGGCUCGUUUUAAUUAGAAC [Eternabot (L1) Solution 22] (Eterna round: R97, puzzle: Sensor, turn-off variant 1) = 344
UUGAACCCGGUAGGAUAUAUUGUGGGCAAACAUGGAACAACAUGAGGAUCACCCAUGUAAUUUAGGUAGAAGGGCCAAAAGAUU [Excl-NG2-LRO06] (Eterna round: R96, puzzle: Exclusion NG 2) = 69.9
AAAUAUCAUGUAGGAUAUGGAAGGCGAACCUAUCCAGAAGGACAUGAGGAUCACCCAUGUGCUGCGUUGUCCGUAGACAGCGCU [Ex NG1 #2] (Eterna round: R96, puzzle: Exclusion NG 1) = 31.4
UAAUUAAUUAAUUAAUAAUACAUGAGGAUCACCCAUGUAGAUCCUACAUACAAUUUAAGUAGCUCGUCUUAUAAUUA [Stov1/1-A1] (Eterna round: R97, puzzle: Sensor, turn-off variant 1) = 264
AACUGUCUAAAGGAUAUGCUGGAUUAAUAUCUGGCAGAAGGUUAGACAUGAGGAUCACCCAUGUAAAUACCACC [Omei Ex6 A10] (Eterna round: R97, puzzle: Exclusion 6) = 19.5

Now examine the next entry.
## Input I'd like to know its apparent KD of MS2 coat protein. The sequence in question is GGAAUGUAAGGAUAUCCGAAAAGCGAGCGAAAGCGAGCAAAGGAGAAGGUACAUGAGGAUCACCCAUGUAAGGG [AK-MS2ROC-r4-exclusion4-12] (Eterna round: R97, puzzle: Exclusion 4)
## Output 768
